src = the RNAGym collection of RNA variant scans (doi:10.7554/elife.90254)

B1: OR4K15 (parent)
chain: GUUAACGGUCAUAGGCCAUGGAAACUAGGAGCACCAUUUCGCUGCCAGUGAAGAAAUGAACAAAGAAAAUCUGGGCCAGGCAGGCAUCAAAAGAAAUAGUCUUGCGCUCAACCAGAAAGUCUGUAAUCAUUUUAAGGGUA

# Variants of: B1
# test-description: self-cleavage, relative activity (ratio to wild type); higher = more cleavage; in vitro, sequencing; the parent is a self-cleaving ribozyme
measured-quantity: self-cleavage
Give bare numbers.

Recorded self-cleavage, per entry:
| mutation-spec | self-cleavage |
| --- | --- |
| C105U U120C | 0.05 |
| G65A U124A | 1.36 |
| A91G U120A | 1.33 |
| U70G A94G | 1.61 |
| A18C G28U | 1.37 |
| A24G G74A | 0.31 |
| U39C U132A | 0.7 |
| U19C U70A | 1.06 |

Each variant below has a reported value. Please supply its self-cleavage.
1. A5U A33C
2. A23G A36G
3. G14U A126G
4. A129C U132C

1: 1.62; 2: 1.43; 3: 1.1; 4: 0.98
